Origin of measurements: PubChem BioAssay (NCI)

Record form. Attribute: TGI. Fill in for each entry.
# Test system: SK-MEL-2 melanoma
# ASSAY_EXPLANATION: NCI tumour cell line growth inhibition, 48 h

Worked cases, answers included:
{"columns": ["COMPOUND", "RESULT"],
 "data": [
  ["CCc1ccc2cc3c(ccc4ccccc43)c3c2c1CC3", "> 100 µM"],
  ["C[C@H](O)CCC(=O)c1ccoc1", "> 100 µM"],
  ["O=C1OCC2=C1C(c1ccc(Cl)cc1)c1cc3c(cc1O2)OCO3 (stereo not given)", "> 100 µM"],
  ["CC(=O)OC(C(=O)NNC(=O)OC(C)(C)C)c1ccccc1 (stereo not given)", "> 100 µM"]
]}

Batch: TGI for all items listed.
1. N#CN1CCC2CC(=O)CCC2C1 (stereo not given)
2. CCOc1ccc(/C=C/C(=O)c2sc(NNC(C)=O)nc2C)cc1
3. C/C=C/C(C/C=C(\C)CO[Si](C)(C)C(C)(C)C)O[Si](C)(C)C(C)(C)C (stereo not given)
4. N#CC(NNC(=O)c1ccccc1O)c1ccccc1O (stereo not given)
5. NC1=Nc2cc(OCCCCN3Cc4ccccc4C3)c(OCC3CC3)cc2C12CCCC2

1: > 100 µM; 2: > 100 µM; 3: > 100 µM; 4: > 100 µM; 5: 3.49 µM

State the recorded TGI for every item in the following list.
1. Cn1c2ccccc2n2c3ccccc3c3nnc(N)c-3c12
2. COc1cc2nc(NC3CCC3)nc(NC3CCN(C(C)C)CC3)c2cc1OC
3. CCN(CC)CCN1C(=O)c2cccc3cc(N)cc(c23)C1=O
4. O=c1[nH]c(-c2ccncc2)nc2sc3c(c12)CCCCCC3
5. CCOc1cc(NC(C)=O)ccc1C(=O)NN1C(=O)/C(=C/c2ccc(Cl)cc2)N=C1c1ccccc1
6. N#CC(C#N)=CNC(=S)Nc1ccc(S(=O)(=O)Nc2nccs2)cc1

1. > 79.5 µM
2. 3.79 µM
3. 37.6 µM
4. > 100 µM
5. > 100 µM
6. > 100 µM
